Sourced from patent US11485701B2

# System: Northern house mosquitoes (Culex pipiens)
# protocol-summary: Short-term spatial repellency, static air repellency chamber
# Assay type: in vivo
# reported-conditions: Culex pipiens, 1.5 h; filter paper, 1 mL of 0.5% solution in acetone, air-dried 15 min; 90 min; read-out: Short-term Percentage repellency 90 min
Output yes (1) for records whose pest or weed control at 0.5 % is lower than 60%, no (0) for records at or above 60%.

1. CC(C)=CCCC(C)CCOC(=O)C1CC1 (centres unmarked) [Compound 1035A, citronellyl cyclopropanecarboxylate]    no (0)
2. CC(C)=CCCC(C)CC(=O)OCC1(C)COC1 (centres unmarked) [Compound 3070]    yes (1)
3. CC(C)=CCCC(C)CCOC(=O)C(C)(F)F (centres unmarked) [Compound 2232, citronellyl 2,2-difluoropropanoate]    no (0)
4. CC(C)=CCC/C(C)=C\COC(=O)C1CC1 [Compound 2023B, neryl cyclopropanecarboxylate]    yes (1)
5. Cc1ccc(C(C)C)c(OC(=O)CC(C)C)c1 [Compound 1055B, thymyl isovalerate]    no (0)
6. CC(C)=CCCC(C)CCOC(=O)C1CCCC1 (centres unmarked) [Compound 2119, citronellyl cyclopentanecarboxylate]    yes (1)
7. CC1CCC(C(C)C)C(OC(=O)C2(C)CCC2)C1 (centres unmarked) [Compound 2210, menthyl 1-methylcyclobutanecarboxylate]    no (0)
8. CC(C)=CCCC(C)CCOC(=O)C(C)C (centres unmarked) [Compound 2204, citronellyl isobutyrate]    no (0)

---

pest or weed control at 0.5 % values for the molecules below.
# Tested on: Northern house mosquitoes (Culex pipiens)
# protocol-summary: Short-term spatial repellency, static air repellency chamber
# Format: in vivo
# reported-conditions: Culex pipiens, 1.5 h; filter paper, 1 mL of 0.5% solution in acetone, air-dried 15 min; 90 min; read-out: Short-term Percentage repellency 90 min
readout-kind: pest or weed control at 0.5 % (%)

1. CC(C)=CCCC(C)CCOC(=O)C1CC(F)(F)C1 (centres unmarked)    20
2. CC(C)=CCCC(C)CCOC(=O)Cc1cccs1 (centres unmarked) [Compound 2244, citronellyl thiophen-2-ylacetate]    45
3. CCCCCCC(=O)OCCC(C)CCC=C(C)C (centres unmarked) [Compound 2203, citronellyl hexanecarboxylate]    10
4. CC(C)=CCCC(C)CCOC(=O)CC(C)C (centres unmarked) [Compound 1034B, citronellyl isovalerate]    77.5
5. CC1CCC(C(C)C)C(OC(=O)C2CC2)C1 (centres unmarked) [Compound 1033B, menthyl cyclopropanecarboxylate]    95
6. CC(C)=CCCC(C)CCO (centres unmarked) [citronellol, reference compound]    80
7. CC(C)=CCC/C(C)=C/COC(=O)C1CC1 [Compound 2023A, geranyl cyclopropanecarboxylate]    42.5
8. Cc1ccc(C(C)C)c(OC(=O)C2CC2)c1 [Compound 1055A, thymol cyclopropanecarboxylate]    87.5

---

# Tested on: Northern house mosquitoes (Culex pipiens)
# protocol-summary: Long-term spatial repellency, static air repellency chamber, filter papers air-dried 5 hours
# Assay type: in vivo
# reported-conditions: Culex pipiens, 0.25 h; 1 mL of 0.5% solution in acetone, air-dried 5 hours; 15 min; read-out: Long-term Percentage repellency 15 min
Structures can show the parent of a compound that is named as a salt.
Output criterion met for records whose pest or weed control at 0.5 % is lower than 20%, criterion not met for records at or above 20%.

1) Cc1ccc(C(C)C)c(OC(=O)CC(C)C)c1 [Compound 1055B, thymyl isovalerate]    criterion met
2) C#CCOC(=O)CC(C)CCC=C(C)C (stereo not drawn) [Compound 1060D, propargyl citronellate]    criterion met
3) Cc1ccc(C(C)C)c(OC=O)c1 [Compound 1107A, thymyl formate]    criterion not met
4) C=CC(C)(C)OC(=O)CC(C)CCC=C(C)C (stereo not drawn) [Compound 2170, tert-prenyl citronellate]    criterion met
5) CC(C)=CCCC(C)CCO (stereo not drawn) [citronellol, reference compound]    criterion not met
6) CC(C)=CCC/C(C)=C/COC(=O)C1CC1 [Compound 2023A, geranyl cyclopropanecarboxylate]    criterion not met
7) CC(C)=CCCC(C)CCOC(=O)C(C)C (stereo not drawn) [Compound 2204, citronellyl isobutyrate]    criterion met
8) Cc1ccc(C(C)C)cc1OC=O [Compound 1107B, carvacryl formate]    criterion not met
9) CC(C)=CCCC(C)CCOC(=O)C(C)(C)C (stereo not drawn) [Compound 1036A, citronellyl pivalate]    criterion not met

---

# Tested on: Northern house mosquitoes (Culex pipiens)
# protocol-summary: Short-term spatial repellency, static air repellency chamber
# Format: in vivo
# reported-conditions: Culex pipiens, 1.5 h; filter paper, 1 mL of 0.5% solution in acetone, air-dried 15 min; 90 min; read-out: Short-term Percentage repellency 90 min
Given measured pest or weed control at 0.5 %, output T if it is greater than or equal to 60% and F if not.

1) CC1=CCC(C(C)(C)OC(=O)CC(C)C)CC1 (stereo not drawn) [Compound 2257, alpha-terpinyl isovalerate]    F
2) CC(C)=CCC/C(C)=C\COC(=O)C1(C)CCC1 [Compound 2108, neryl 1-methylcyclobutanecarboxylate]    T
3) C#CC(C)(C)OC(=O)CC(C)CCC=C(C)C (stereo not shown) [Compound 2171, 1,1-dimethylpropargyl citronellate]    T
4) CC(C)=CCCC(C)CCOC(=O)C1CC(C)C1 (stereo not shown)    F
5) C#CCOC(=O)CC(C)CCC=C(C)C (stereo not shown) [Compound 1060D, propargyl citronellate]    T
6) C=C(C)CCOC(=O)CC(C)CCC=C(C)C (stereo not shown) [Compound 2168, isoprenyl citronellate]    T
7) C=CC(C)(C)OC(=O)CC(C)CCC=C(C)C (stereo not shown) [Compound 2170, tert-prenyl citronellate]    T
8) CC(C)CC(=O)OC1CC(C)CCC1C(C)C (stereo not shown) [Compound 2256, menthyl isovalerate]    F
9) CC(C)CC(=O)OCC1=CCC2CC1C2(C)C (stereo not shown) [Compound 2258, myrteryl isovalerate]    T
10) CCN(CC)C(=O)c1cccc(C)c1 [N,N-diethyl-meta-toluamide (DEET), N,N-diethyl-meta-toluamide, reference compound]    F
11) Cc1ccc(C(C)C)cc1OC(=O)CC(C)C [Compound 1079C, carvacryl isovalerate]    T
12) CC(C)=CCCC(C)CCOC(=O)CC#N (stereo not shown) [Compound 2198, citronellyl cyanoacetate]    F
